Biological target: mouse Tas2r108 (Mus musculus)
Construct: expressed in transfected cells; host or cells: HEK293T-Gα16gust44
Sequence (Q9JKT3 whole entry): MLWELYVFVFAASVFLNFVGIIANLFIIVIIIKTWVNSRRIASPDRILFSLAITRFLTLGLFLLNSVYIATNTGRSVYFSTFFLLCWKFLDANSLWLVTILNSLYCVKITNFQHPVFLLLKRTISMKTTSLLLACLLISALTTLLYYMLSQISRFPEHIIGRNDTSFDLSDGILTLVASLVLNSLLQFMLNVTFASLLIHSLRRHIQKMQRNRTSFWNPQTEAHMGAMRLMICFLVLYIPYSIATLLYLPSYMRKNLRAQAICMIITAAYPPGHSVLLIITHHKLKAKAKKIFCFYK
Assay: Calcium imaging assay (FLIPR), HEK293T-Gα16gust44 cells transfected with mouse Tas2r108
Format: cell-based
Conditions: Time 16 s
One threshold, -10 RLU, splits the recorded RLU values: lower ones are YES, equal or higher ones are NO.

RLU strictly < -10 RLU for this compound? C[C@H](CCC(=O)NCCS(=O)(=O)O)[C@H]1CC[C@H]2[C@@H]3CC[C@@H]4C[C@H](O)CC[C@]4(C)[C@H]3CC[C@]12C NO

Lab note: confirm whether the reported RLU for this compound is below -10 RLU, equality not counting. compound: C[C@H](CCC(=O)NCCS(=O)(=O)O)[C@H]1CC[C@H]2[C@@H]3[C@H](O)C[C@@H]4C[C@H](O)CC[C@]4(C)[C@H]3C[C@H](O)[C@]12C YES

Please state whether RLU is below -10 RLU for C[C@H](CCC(=O)O)[C@H]1CC[C@H]2[C@@H]3[C@H](O)C[C@@H]4C[C@H](O)CC[C@]4(C)[C@H]3C[C@H](O)[C@]12C NO

For C[C@H](CCC(=O)NCC(=O)O)[C@H]1CC[C@H]2[C@@H]3[C@H](O)C[C@@H]4C[C@H](O)CC[C@]4(C)[C@H]3C[C@H](O)[C@]12C , is the recorded RLU below the cut-off of -10 RLU? YES

Dear colleague, could you confirm whether RLU of C[C@H](CCC(=O)O)[C@H]1CC[C@H]2[C@@H]3CC[C@@H]4C[C@H](O)CC[C@]4(C)[C@H]3C[C@H](O)[C@]12C falls below -10 RLU? Thanks. NO

----------
Biological target: mouse Tas2r144 (Mus musculus, UniProt Q7TQB8)
Construct: expressed in transfected cells; host or cells: HEK293T-Gα16gust44
Sequence (Q7TQB8 whole entry): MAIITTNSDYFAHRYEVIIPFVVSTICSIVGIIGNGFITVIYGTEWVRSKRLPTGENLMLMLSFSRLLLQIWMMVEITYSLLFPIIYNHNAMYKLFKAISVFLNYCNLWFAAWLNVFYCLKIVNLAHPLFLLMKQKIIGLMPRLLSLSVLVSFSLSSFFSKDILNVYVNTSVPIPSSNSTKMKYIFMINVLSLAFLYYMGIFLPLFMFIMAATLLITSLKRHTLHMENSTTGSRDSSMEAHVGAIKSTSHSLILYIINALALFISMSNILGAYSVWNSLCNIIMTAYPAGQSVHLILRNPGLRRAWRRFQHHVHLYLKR
Assay: Calcium imaging assay (FLIPR), HEK293T-Gα16gust44 cells transfected with mouse Tas2r144
Assay type: cell-based
Conditions: Time 28.781 s
Please respond with reported RLU for every item in the list.
Write it as a number; the unit RLU goes unstated.

Value lookup for RLU; key = C[C@H](CCC(=O)O)[C@H]1CC[C@H]2[C@@H]3[C@H](O)C[C@@H]4C[C@H](O)CC[C@]4(C)[C@H]3C[C@H](O)[C@]12C 320.656

Query (compound): C[C@H](CCC(=O)NCCS(=O)(=O)O)[C@H]1CC[C@H]2[C@@H]3[C@H](O)C[C@@H]4C[C@H](O)CC[C@]4(C)[C@H]3C[C@H](O)[C@]12C ; field requested: RLU 107.959

Suppose we examine the compound C[C@H](CCC(=O)NCC(=O)O)[C@H]1CC[C@H]2[C@@H]3[C@H](O)C[C@@H]4C[C@H](O)CC[C@]4(C)[C@H]3C[C@H](O)[C@]12C ; what RLU value has been reported? 99.9904

What does the data say about its RLU? Entry: C[C@H](CCC(=O)NCCS(=O)(=O)O)[C@H]1CC[C@H]2[C@@H]3CC[C@@H]4C[C@H](O)CC[C@]4(C)[C@H]3CC[C@]12C -0.7767

----------
Target: human TAS2R4 (Homo sapiens, UniProt Q9NYW5)
Construct: expressed in transfected cells; host or cells: HEK293T-Gα16gust44
Sequence (Q9NYW5 whole entry): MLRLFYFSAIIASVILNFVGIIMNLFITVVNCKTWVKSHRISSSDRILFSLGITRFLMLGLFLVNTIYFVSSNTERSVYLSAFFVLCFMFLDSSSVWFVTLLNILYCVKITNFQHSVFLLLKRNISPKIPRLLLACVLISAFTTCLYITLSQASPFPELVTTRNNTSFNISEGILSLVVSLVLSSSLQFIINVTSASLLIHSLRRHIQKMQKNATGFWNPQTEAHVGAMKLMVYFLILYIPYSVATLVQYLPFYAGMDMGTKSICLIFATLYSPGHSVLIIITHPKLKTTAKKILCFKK
Assay: Calcium imaging assay (FLIPR), HEK293T-Gα16gust44 cells transfected with human TAS2R4; also: test concentration or dose not given here
Type: cell-based
Conditions: Time (s) 134.781 (TCA, TLCA: 134.782)
Recorded Endpoint: RLU, fluorescence trace (RLU)
Output spec: scalar in RLU, unitless text.

Fill blank: measured RLU, fluorescence trace of the molecule C[C@H](CCC(=O)NCCS(=O)(=O)O)[C@H]1CC[C@H]2[C@@H]3[C@H](O)C[C@@H]4C[C@H](O)CC[C@]4(C)[C@H]3C[C@H](O)[C@]12C [Taurocholic Acid, taurocholic acid] is ____. 548.858

Given the molecule C[C@H](CCC(=O)NCCS(=O)(=O)O)[C@H]1CC[C@H]2[C@@H]3CC[C@@H]4C[C@H](O)CC[C@]4(C)[C@H]3CC[C@]12C [Taurolithocholic Acid, taurolithocholic acid] , what is its reported RLU, fluorescence trace? 243.112

Reported RLU, fluorescence trace for C[C@H](CCC(=O)NCC(=O)O)[C@H]1CC[C@H]2[C@@H]3[C@H](O)C[C@@H]4C[C@H](O)CC[C@]4(C)[C@H]3C[C@H](O)[C@]12C [Glycocholic Acid, glycocholic acid] : what is it? 427.428

----------
Molecular target: mouse Tas2r105 (Mus musculus)
Construct: expressed in transfected cells; host or cells: HEK293T-Gα16gust44
Sequence (Q9JKT4 whole entry): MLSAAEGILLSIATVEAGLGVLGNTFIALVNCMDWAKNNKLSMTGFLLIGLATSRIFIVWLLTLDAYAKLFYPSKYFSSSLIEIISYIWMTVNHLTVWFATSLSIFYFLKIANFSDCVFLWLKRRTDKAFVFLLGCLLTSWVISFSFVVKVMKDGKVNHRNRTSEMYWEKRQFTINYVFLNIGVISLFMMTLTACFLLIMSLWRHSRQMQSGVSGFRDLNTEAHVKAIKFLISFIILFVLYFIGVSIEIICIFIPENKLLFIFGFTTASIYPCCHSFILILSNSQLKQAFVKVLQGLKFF
Test: Calcium imaging assay (FLIPR), HEK293T-Gα16gust44 cells transfected with mouse Tas2r105
Assay type: cell-based
Settings: Time 88.781 s
Assignment: determine reported RLU for the given compounds.
Just the number please, in RLU, no unit attached.

# RLU lookup, item C[C@H](CCC(=O)O)[C@H]1CC[C@H]2[C@@H]3CC[C@@H]4C[C@H](O)CC[C@]4(C)[C@H]3CC[C@]12C 204.712

Which RLU value belongs to C[C@H](CCC(=O)O)[C@H]1CC[C@H]2[C@@H]3CC[C@@H]4C[C@H](O)CC[C@]4(C)[C@H]3C[C@H](O)[C@]12C ? 81.07

If you can, please state the reported RLU value of C[C@H](CCC(=O)O)[C@H]1CC[C@H]2[C@@H]3[C@H](O)C[C@@H]4C[C@H](O)CC[C@]4(C)[C@H]3C[C@H](O)[C@]12C . 553.294

I'd like to know its RLU. The compound in question is C[C@H](CCC(=O)NCC(=O)O)[C@H]1CC[C@H]2[C@@H]3[C@H](O)C[C@@H]4C[C@H](O)CC[C@]4(C)[C@H]3C[C@H](O)[C@]12C 565.311

----------
What RLU was measured for each of the following?
Target: human TAS2R1 (Homo sapiens)
Construct: expressed in transfected cells; host or cells: HEK293T-Gα16gust44
Sequence (Q9NYW7 whole entry): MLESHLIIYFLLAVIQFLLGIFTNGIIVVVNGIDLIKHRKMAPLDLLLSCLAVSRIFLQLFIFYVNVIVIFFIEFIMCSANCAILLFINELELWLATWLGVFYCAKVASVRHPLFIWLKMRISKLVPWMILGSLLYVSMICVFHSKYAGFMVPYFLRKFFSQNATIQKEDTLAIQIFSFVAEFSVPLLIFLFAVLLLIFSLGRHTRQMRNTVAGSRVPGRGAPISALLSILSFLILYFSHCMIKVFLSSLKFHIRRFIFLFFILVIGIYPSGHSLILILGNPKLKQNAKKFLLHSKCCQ
Experiment: Calcium imaging assay (FLIPR), HEK293T-Gα16gust44 cells transfected with human TAS2R1
Assay type: cell-based
Settings: calcium trace, sheet TAS2R1; Time 323.547 s

GET /values?readout=RLU&item= C[C@H](CCC(=O)NCCS(=O)(=O)O)[C@H]1CC[C@H]2[C@@H]3CC[C@@H]4C[C@H](O)CC[C@]4(C)[C@H]3CC[C@]12C -236.998 RLU

Data request, read-out RLU, for C[C@H](CCC(=O)NCC(=O)O)[C@H]1CC[C@H]2[C@@H]3[C@H](O)C[C@@H]4C[C@H](O)CC[C@]4(C)[C@H]3C[C@H](O)[C@]12C 43.6147 RLU

For the compound C[C@H](CCC(=O)O)[C@H]1CC[C@H]2[C@@H]3CC[C@@H]4C[C@H](O)CC[C@]4(C)[C@H]3C[C@H](O)[C@]12C , what RLU is on record? 134.84 RLU

Consider the compound C[C@H](CCC(=O)NCCS(=O)(=O)O)[C@H]1CC[C@H]2[C@@H]3[C@H](O)C[C@@H]4C[C@H](O)CC[C@]4(C)[C@H]3C[C@H](O)[C@]12C and give its measured RLU. -10.1142 RLU

----------
Target: human TAS2R14 (Homo sapiens, UniProt Q9NYV8)
Construct: expressed in transfected cells; host or cells: HEK293T-Gα16gust44
Sequence (Q9NYV8 whole entry): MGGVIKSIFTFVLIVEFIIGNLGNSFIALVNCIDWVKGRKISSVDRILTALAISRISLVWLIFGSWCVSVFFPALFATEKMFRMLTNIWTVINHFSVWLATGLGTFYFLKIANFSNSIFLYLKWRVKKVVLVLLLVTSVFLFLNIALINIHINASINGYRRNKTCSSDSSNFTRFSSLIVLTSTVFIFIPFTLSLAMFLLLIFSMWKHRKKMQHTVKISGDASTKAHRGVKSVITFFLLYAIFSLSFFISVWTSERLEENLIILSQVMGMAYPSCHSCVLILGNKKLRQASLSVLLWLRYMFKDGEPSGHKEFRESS
Experiment: Calcium imaging assay (FLIPR), HEK293T-Gα16gust44 cells transfected with human TAS2R14
Format: cell-based
Settings: TAS2R14 trace; Time (s) 136.797 (Chenodeoxycholic Acid 136.781)
Kind request: treat 900 RLU as inclusive, so RLU at 900 RLU or higher is yes (1), anything lower is no (0).

Tell me whether RLU is at least 900 RLU here: C[C@H](CCC(=O)NCCS(=O)(=O)O)[C@H]1CC[C@H]2[C@@H]3CC[C@@H]4C[C@H](O)CC[C@]4(C)[C@H]3CC[C@]12C [Taurolithocholic Acid, taurolithocholic acid] no (0)

Reported RLU at or above 900 RLU? C[C@H](CCC(=O)O)[C@H]1CC[C@H]2[C@@H]3[C@H](O)C[C@@H]4C[C@H](O)CC[C@]4(C)[C@H]3CC[C@]12C [Chenodeoxycholic Acid, chenodeoxycholic acid] no (0)

Reported RLU reaches at least 900 RLU for C[C@H](CCC(=O)NCCS(=O)(=O)O)[C@H]1CC[C@H]2[C@@H]3[C@H](O)C[C@@H]4C[C@H](O)CC[C@]4(C)[C@H]3C[C@H](O)[C@]12C [Taurocholic Acid, taurocholic acid] ? yes (1)

# bool: RLU of C[C@H](CCC(=O)O)[C@H]1CC[C@H]2[C@@H]3[C@H](O)C[C@@H]4C[C@H](O)CC[C@]4(C)[C@H]3C[C@H](O)[C@]12C [Cholic Acid, cholic acid] >= 900 RLU yes (1)
